Numbers sourced from PubChem BioAssay (NCI).

Measured growth by item
Tested on: A549/ATCC NSCLC
Experiment: NCI-60 one-dose screen, 48 h (100 = growth as untreated, 0 = no growth, -100 = all killed)
Settings: 10 µM
About 83,000 compounds went through this panel and 20% of them were active in at least one assay; those are over-represented in the sample as a whole.
// return numeric value only (unit: %, not printed)

Solved cases (3 shown):
1) S=C1SCN(CCc2ccccc2)CN1CCc1ccccc1 : 90.8
2) O=C(NC(=S)Nc1ccccn1)c1ccccc1 : 101
3) Cc1cc(C)c(N2C(=O)CC(Sc3ccccc3N)C2=O)c(C)c1 (centres undefined) : 74.8

API: the following record is the query input.
Write down growth measured for item "O=C1c2ccccc2CCC1(Br)Br"
96
